- ASSAY_EXPLANATION: NCI Yeast Anticancer Drug Screen. Data for the mec2-1 strain (AID 157)
- MEASUREMENT_CONTEXT: S. cerevisiae mec2-1 strain, at 50.0 µM, active compounds read high
About 79,000 compounds went through this panel and 15% of them were active in at least one assay; those are over-represented in the sample as a whole.
The following compounds are listed with their measured growth inhibition values.
READOUT: growth inhibition (%)

compound="CC1([N+](=O)[O-])C(=O)C2(N3CCOCC3)CCCC2C1c1ccccc1 (configuration not stated)" value_observed=-0.3
compound=COC1=CC(=O)[C@H]2CC(C)=CC[C@]2(C)C1=O value_observed=6.55
compound=Cc1ccc(C)c(NC(=O)CCC(=O)CC(=O)c2ccncc2)c1 value_observed=7.45
compound=COc1cc(F)ccn1 value_observed=-11.4
compound=CCCCCCCCCCCCCCCCNCCCN(C)CCCN value_observed=93.5
compound="CC1(C)CC(=O)C2=C(C1)OC1=C(C(=O)CC(C)(C)C1)C2CC(c1ccccc1)c1ccc(O)c(O)c1O (configuration not stated)" value_observed=22.8
compound=Oc1ccc(O)c2c1N=NC21c2ccccc2Oc2ccccc21 value_observed=54
compound=CN1CCCN(C)C1c1cc([N+](=O)[O-])ccc1O value_observed=98.2
compound=Cc1ccc2ccc3c(CCN(C)C)cc4c(c3c2c1O)OCO4 value_observed=67.3
compound="CN1c2ccccc2C(=O)NC1c1ccc([N+](=O)[O-])s1 (configuration not stated)" value_observed=41
compound=O=C(C[P+](c1ccccc1)(c1ccccc1)c1ccccc1)c1ccc(Br)cc1 value_observed=97.4
compound=O=[N+]([O-])c1cc(Br)cc2c1nc(NCCCO)c1ccccc12 value_observed=96.4
compound=C/C(=N\NC(=S)Nc1ccc(Cl)cc1)c1nc2ncccc2[nH]1 value_observed=90.2
compound=O=S(=O)(c1cc(Br)ccc1O)c1cc(Br)ccc1O value_observed=99.8
compound=C(CCCCCN1CCCCC1)CCCCN1CCCCC1 value_observed=5.4
compound=C1C[OH+]CC[OH+]CCNCC[OH+]CC[OH+]CCN1.[Cl-].[Pt+4] value_observed=87.4
compound=Cc1nc(-c2ccc(N=Cc3ccc(N(CCOS(C)(=O)=O)CCOS(C)(=O)=O)cc3Cl)cc2)c(C)s1 value_observed=13.1
compound=c1ccc2c3ccn4ccc5c6ccccc6[nH]c5c4c-3nc2c1 value_observed=47.1
compound="CCC(C)(O)C#Cc1ccc(C)nc1 (configuration not stated)" value_observed=9.4
compound="Oc1ccccc1C1C=C(c2ccccc2)NC(N2CCCCC2)=C1c1nc2ccccc2[nH]1 (configuration not stated)" value_observed=-5.15
compound=CCCCCCCCNS(=O)(=O)c1ccc(N)cc1 value_observed=25.2
compound="CCCCCCC(O)CCOC(C)=O (configuration not stated)" value_observed=-13.2
